Field: zone of inhibition at 50 µg/disc. Provide a value for each of the compounds that follow.
Tested on: Vibrio harveyi
Test: agar disc diffusion assay, inhibition zone
Type: cell-based
Conditions: 50 μg/disc, 30° C., 24 h, read-out: Inhibition Zone Width
Give just the numeric value; mm need not be written.

q: Entry OCc1cc(O)cc(Cl)c1O [Compound 1, 3-chloro-2,5-dihydroxy benzyl alcohol] has what zone of inhibition at 50 µg/disc?
a: 3.5

q: Consider next the compound [H]/N=C(/N)N[C@H]1[C@H](O)[C@@H](O)[C@H](O[C@@H]2O[C@@H](C)[C@](O)(C=O)[C@H]2O[C@@H]2O[C@@H](CO)[C@H](O)[C@@H](O)[C@@H]2NC)[C@@H](N/C(N)=N\[H])[C@@H]1O [Streptomycin, reference compound] in the same way.
a: 3

q: Consider next the compound O=C1NC(Cc2ccccc2)C(=O)N2CCCC12 (stereo not shown) [Compound 2, cyclo-(Pro-Phe)] in the same way.
a: 0.5

q: Consider next the compound CC(C)CC(=O)NCCc1ccccc1 [Compound 3, 3-methyl-N-(2-phenylethyl) butanamide] in the same way.
a: 0
